Where these numbers come from: patent US20260049104A1

Each entry below lists one item and its recorded MIC value value.
test system: Pseudomonas aeruginosa; type: cell-based; conditions: Pseudomonas aeruginosa DR4877/07; Table 15, unit inferred
quantity measured: MIC value (µg/mL)

{"columns": ["molecule", "value observed"],
 "data": [
  ["CC(C)[C@@H]1NC(=O)[C@@H](N)Cc2c[nH]c3cc(ccc23)C(C(N)=O)[C@@H](C(=O)N[C@@H](C)C(=O)N[C@H]2Cc3cccc(c3)C(CCNC(=N)N)[C@@H](C(=O)N[C@H]3Cc4c[nH]c5cc(ccc45)C(CCCN)[C@@H](C(=O)N[C@@H](CCCNC(=N)N)C(=O)N[C@@H](Cc4c[nH]c5ccccc45)C(=O)O)NC(=O)[C@H](CO)NC3=O)NC(=O)[C@H](C)NC2=O)NC1=O (stereo partly shown) [xenorceptide A12-1]", 32],
  ["CC(C)[C@@H]1NC(=O)[C@@H](N)Cc2c[nH]c3cc(ccc23)C(C(N)=O)[C@@H](C(=O)N[C@@H](C)C(=O)N[C@H]2Cc3cccc(c3)C(CCNC(=N)N)[C@@H](C(=O)N[C@H]3Cc4c[nH]c5cc(ccc45)C(CCNC(=N)N)[C@@H](C(=O)N[C@@H](CCCNC(=N)N)C(=O)N[C@@H](Cc4c[nH]c5ccccc45)C(=O)O)NC(=O)[C@H](CO)NC3=O)NC(=O)[C@H](C)NC2=O)NC1=O (stereo partly shown) [xenorceptide A11]", 32],
  ["CC(C)[C@@H]1NC(=O)[C@@H](N)Cc2c[nH]c3cc(ccc23)C(C(N)=O)[C@@H](C(=O)N[C@@H](C)C(=O)N[C@H]2Cc3cccc(c3)C(CCNC(=N)N)[C@@H](C(=O)N[C@H]3Cc4c[nH]c5cc(ccc45)C(CCCN)[C@@H](C(=O)N[C@@H](CCCNC(=N)N)C(=O)N[C@@H](Cc4ccccc4)C(=O)O)NC(=O)[C@H](CO)NC3=O)NC(=O)[C@H](C)NC2=O)NC1=O (stereo partly shown) [xenorceptide A12-2]", 32],
  ["CC(C)[C@@H]1NC(=O)[C@@H](NC(=O)CNC(=O)[C@H](CCC(=O)O)NC(=O)CNC(=O)[C@@H](N)CCCNC(=N)N)Cc2c[nH]c3cc(ccc23)C(CCNC(=N)N)[C@@H](C(=O)N[C@@H](C)C(=O)N[C@@H](Cc2ccc(O)cc2)C(=O)N[C@H]2Cc3c[nH]c4cc(ccc34)C(CCCN)[C@@H](C(=O)N[C@@H](CCCNC(=N)N)C(=O)N[C@@H](Cc3ccccc3)C(=O)O)NC(=O)[C@H](C)NC2=O)NC1=O (stereo partly shown) [Compound 24, xenorceptide D1]", 16]
]}

====

The entries below come with measured MIC value values attached.
tested on: Pseudomonas aeruginosa; type: cell-based; settings: Pseudomonas aeruginosa DM23376; Table 15, unit inferred

{"columns": ["compound", "sign qualifier", "MIC value, µg/mL"],
 "data": [
  ["CC(C)[C@@H]1NC(=O)[C@@H](N)Cc2c[nH]c3cc(ccc23)C(C(N)=O)[C@@H](C(=O)N[C@@H](C)C(=O)N[C@H]2Cc3cccc(c3)C(CCNC(=N)N)[C@@H](C(=O)N[C@H]3Cc4c[nH]c5cc(ccc45)C(CCNC(=N)N)[C@@H](C(=O)N[C@@H](CCCNC(=N)N)C(=O)N[C@@H](Cc4c[nH]c5ccccc45)C(=O)O)NC(=O)[C@H](CO)NC3=O)NC(=O)[C@H](C)NC2=O)NC1=O (stereo partly shown) [xenorceptide A11]", "=", 16],
  ["CC(C)[C@@H]1NC(=O)[C@@H](NC(=O)CNC(=O)[C@H](CCC(=O)O)NC(=O)CNC(=O)[C@@H](N)CCCNC(=N)N)Cc2c[nH]c3cc(ccc23)C(CCNC(=N)N)[C@@H](C(=O)N[C@@H](C)C(=O)N[C@@H](Cc2ccc(O)cc2)C(=O)N[C@H]2Cc3c[nH]c4cc(ccc34)C(CCCN)[C@@H](C(=O)N[C@@H](CCCNC(=N)N)C(=O)N[C@@H](Cc3ccccc3)C(=O)O)NC(=O)[C@H](C)NC2=O)NC1=O (stereo partly shown) [Compound 24, xenorceptide D1]", "=", 16],
  ["CC(C)[C@@H]1NC(=O)[C@@H](N)Cc2c[nH]c3cc(ccc23)C(C(N)=O)[C@@H](C(=O)N[C@@H](C)C(=O)N[C@H]2Cc3cccc(c3)C(CCNC(=N)N)[C@@H](C(=O)N[C@H]3Cc4c[nH]c5cc(ccc45)C(CCCN)[C@@H](C(=O)N[C@@H](CCCNC(=N)N)C(=O)N[C@@H](Cc4ccccc4)C(=O)O)NC(=O)[C@H](CO)NC3=O)NC(=O)[C@H](C)NC2=O)NC1=O (stereo partly shown) [xenorceptide A12-2]", "=", 32],
  ["CC(C)[C@@H]1NC(=O)[C@@H](N)Cc2c[nH]c3cc(ccc23)C(C(N)=O)[C@@H](C(=O)N[C@@H](C)C(=O)N[C@H]2Cc3cccc(c3)C(CCNC(=N)N)[C@@H](C(=O)N[C@H]3Cc4c[nH]c5cc(ccc45)C(CCCN)[C@@H](C(=O)N[C@@H](CCCNC(=N)N)C(=O)N[C@@H](Cc4c[nH]c5ccccc45)C(=O)O)NC(=O)[C@H](CO)NC3=O)NC(=O)[C@H](C)NC2=O)NC1=O (stereo partly shown) [xenorceptide A12-1]", ">", 32]
]}

====

The reader will find reported MIC value values listed item by item below.
test system: Acinetobacter baumannii; conditions: Acinetobacter baumanii ACβA1004; Table 15, unit inferred

{"columns": ["compound", "endpoint unit", "MIC value"],
 "data": [
  ["CC(C)[C@@H]1NC(=O)[C@@H](N)Cc2c[nH]c3cc(ccc23)C(C(N)=O)[C@@H](C(=O)N[C@@H](C)C(=O)N[C@H]2Cc3cccc(c3)C(CCNC(=N)N)[C@@H](C(=O)N[C@H]3Cc4c[nH]c5cc(ccc45)C(CCCN)[C@@H](C(=O)N[C@@H](CCCNC(=N)N)C(=O)N[C@@H](Cc4ccccc4)C(=O)O)NC(=O)[C@H](CO)NC3=O)NC(=O)[C@H](C)NC2=O)NC1=O (stereo partly shown) [xenorceptide A12-2]", "µg/mL", 16],
  ["CC(C)[C@@H]1NC(=O)[C@@H](NC(=O)CNC(=O)[C@H](CCC(=O)O)NC(=O)CNC(=O)[C@@H](N)CCCNC(=N)N)Cc2c[nH]c3cc(ccc23)C(CCNC(=N)N)[C@@H](C(=O)N[C@@H](C)C(=O)N[C@@H](Cc2ccc(O)cc2)C(=O)N[C@H]2Cc3c[nH]c4cc(ccc34)C(CCCN)[C@@H](C(=O)N[C@@H](CCCNC(=N)N)C(=O)N[C@@H](Cc3ccccc3)C(=O)O)NC(=O)[C@H](C)NC2=O)NC1=O (stereo partly shown) [Compound 24, xenorceptide D1]", "µg/mL", 4],
  ["CC(C)[C@@H]1NC(=O)[C@@H](N)Cc2c[nH]c3cc(ccc23)C(C(N)=O)[C@@H](C(=O)N[C@@H](C)C(=O)N[C@H]2Cc3cccc(c3)C(CCNC(=N)N)[C@@H](C(=O)N[C@H]3Cc4c[nH]c5cc(ccc45)C(CCNC(=N)N)[C@@H](C(=O)N[C@@H](CCCNC(=N)N)C(=O)N[C@@H](Cc4c[nH]c5ccccc45)C(=O)O)NC(=O)[C@H](CO)NC3=O)NC(=O)[C@H](C)NC2=O)NC1=O (stereo partly shown) [xenorceptide A11]", "µg/mL", 16],
  ["CC(C)[C@@H]1NC(=O)[C@@H](N)Cc2c[nH]c3cc(ccc23)C(C(N)=O)[C@@H](C(=O)N[C@@H](C)C(=O)N[C@H]2Cc3cccc(c3)C(CCNC(=N)N)[C@@H](C(=O)N[C@H]3Cc4c[nH]c5cc(ccc45)C(CCCN)[C@@H](C(=O)N[C@@H](CCCNC(=N)N)C(=O)N[C@@H](Cc4c[nH]c5ccccc45)C(=O)O)NC(=O)[C@H](CO)NC3=O)NC(=O)[C@H](C)NC2=O)NC1=O (stereo partly shown) [xenorceptide A12-1]", "µg/mL", 8]
]}

====

system: Klebsiella pneumoniae; conditions: ATCC 25922, printed under Klebsiella pneumoniae; Table 15, unit inferred
quantity measured: MIC value (µg/mL)

{"columns": ["compound", "value observed"],
 "data": [
  ["CC(C)[C@@H]1NC(=O)[C@@H](N)Cc2c[nH]c3cc(ccc23)C(C(N)=O)[C@@H](C(=O)N[C@@H](C)C(=O)N[C@H]2Cc3cccc(c3)C(CCNC(=N)N)[C@@H](C(=O)N[C@H]3Cc4c[nH]c5cc(ccc45)C(CCCN)[C@@H](C(=O)N[C@@H](CCCNC(=N)N)C(=O)N[C@@H](Cc4c[nH]c5ccccc45)C(=O)O)NC(=O)[C@H](CO)NC3=O)NC(=O)[C@H](C)NC2=O)NC1=O (stereo partly shown) [xenorceptide A12-1]", 2],
  ["CC(C)[C@@H]1NC(=O)[C@@H](N)Cc2c[nH]c3cc(ccc23)C(C(N)=O)[C@@H](C(=O)N[C@@H](C)C(=O)N[C@H]2Cc3cccc(c3)C(CCNC(=N)N)[C@@H](C(=O)N[C@H]3Cc4c[nH]c5cc(ccc45)C(CCCN)[C@@H](C(=O)N[C@@H](CCCNC(=N)N)C(=O)N[C@@H](Cc4ccccc4)C(=O)O)NC(=O)[C@H](CO)NC3=O)NC(=O)[C@H](C)NC2=O)NC1=O (stereo partly shown) [xenorceptide A12-2]", 1],
  ["CC(C)[C@@H]1NC(=O)[C@@H](NC(=O)CNC(=O)[C@H](CCC(=O)O)NC(=O)CNC(=O)[C@@H](N)CCCNC(=N)N)Cc2c[nH]c3cc(ccc23)C(CCNC(=N)N)[C@@H](C(=O)N[C@@H](C)C(=O)N[C@@H](Cc2ccc(O)cc2)C(=O)N[C@H]2Cc3c[nH]c4cc(ccc34)C(CCCN)[C@@H](C(=O)N[C@@H](CCCNC(=N)N)C(=O)N[C@@H](Cc3ccccc3)C(=O)O)NC(=O)[C@H](C)NC2=O)NC1=O (stereo partly shown) [Compound 24, xenorceptide D1]", 1],
  ["CC(C)[C@@H]1NC(=O)[C@@H](N)Cc2c[nH]c3cc(ccc23)C(C(N)=O)[C@@H](C(=O)N[C@@H](C)C(=O)N[C@H]2Cc3cccc(c3)C(CCNC(=N)N)[C@@H](C(=O)N[C@H]3Cc4c[nH]c5cc(ccc45)C(CCNC(=N)N)[C@@H](C(=O)N[C@@H](CCCNC(=N)N)C(=O)N[C@@H](Cc4c[nH]c5ccccc45)C(=O)O)NC(=O)[C@H](CO)NC3=O)NC(=O)[C@H](C)NC2=O)NC1=O (stereo partly shown) [xenorceptide A11]", 1]
]}
